- TARGET SYSTEM: recombinant Mcl-1 (residues 172-327) (Homo sapiens (Human), UniProt Q07820)
- Sequence (Q07820 172-327): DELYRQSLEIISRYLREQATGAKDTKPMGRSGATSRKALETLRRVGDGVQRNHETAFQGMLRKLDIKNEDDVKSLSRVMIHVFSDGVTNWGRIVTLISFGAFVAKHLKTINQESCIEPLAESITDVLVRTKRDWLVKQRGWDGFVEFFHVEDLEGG
- TEST PROTOCOL: Fluorescence polarization anisotropy competition assay (FITC-Bak or FITC-Bim BH3 peptide), Mcl-1
- Assay type: binding
- ASSAY CONTEXT: FITC-labeled BH3 peptide (Bak or Bim) displacement; Ki converted from IC50; printed as range bins; read-out: Ki for Inhibition of Mcl-1
pKi: −log10 of the molar value.
PROPERTY LABEL: pKi

Please fill in: pKi reported for `Cc1cc(OCCCc2c3n(c4c(-c5c(C)nn(C)c5C)c(Cl)ccc24)CCCN(c2cc(C(=O)O)c4cn(C)nc4c2)C3=O)cc(C)c1Cl` = > 7.30
